system: Cowpox virus; assay: Antiviral activity against Cowpox virus Brighton in HFF cells assessed as reduction in cytopathogenicity; type: functional, organism-based
reported-metric: EC50 (µM)
Supply the numeric figure in µM, leaving out any unit text.

In [3]: df
Out[3]:
                                molecule  reported_metric  readout_value
0  Nc1ccn(C[C@@H](CO)OCP(=O)(O)O)c(=O)n1             EC50            7.1

[Q] Query EC50 for CC(=O)OC[C@H]1O[C@@H](n2cc(/C=C3\C(=O)N(c4ccccc4)N=C3C)c(=O)[nH]c2=O)C[C@@H]1OC(C)=O
[A] 33.7

====

test system: Cowpox virus; assay: Antiviral activity against Cowpox virus Brighton in HFF cells assessed as reduction in plaque formation; type: functional, organism-based
reported-metric: pEC50
Scale: negative log10 of molar concentration, which is what pEC50 denotes.

[Q] Report pEC50 for CC(=O)OC[C@H]1O[C@@H](n2cc(/C=C3\C(=O)N(c4ccccc4)N=C3C)c(=O)[nH]c2=O)C[C@@H]1OC(C)=O
[A] 4.32
